Tested on: BE-13;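 further: growth inhibition of human BE-13 cells, measured with a cell viability assay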
Assay: cells
Assay type: functional, cell-based
Conditions: Homo sapiens
Description: SANGER: Inhibition of human BE-13 cell growth in a cell viability assay.
Assignment: determine reported IC50 for the given compounds.
Dear colleague, please return just the value in nM, with no unit written.

# return recorded IC50 for input Cn1c(=O)n(-c2ccc(C(C)(C)C#N)cc2)c2c3cc(-c4cnc5ccccc5c4)ccc3ncc21
31.8

Output measured IC50 for this item: Cc1ccc(NC(=O)c2cccc(C(C)(C)C#N)c2)cc1Nc1ccc2ncn(C)c(=O)c2c1
806

Give the measured IC50 for CC[C@@]1(O)C(=O)OCc2c1cc1n(c2=O)Cc2cc3ccccc3nc2-1
4.56

Entry Fc1cc(-c2cc[nH]/c(=N/c3ccc(-n4cnc(N5CCOCC5)n4)cc3)n2)cc(N2CCOCC2)c1 needs its IC50 filled in; supply it.
1100
